target.or.system: T1, human EphB3 (Homo sapiens, UniProt P54753)
T1 construct: a protein of the extracellular region of each human Eph receptor fused with the SEAP protein and the His tag; made in house; host or cells: Expi293F cells
T1 sequence (P54753 34-559 limits assumed): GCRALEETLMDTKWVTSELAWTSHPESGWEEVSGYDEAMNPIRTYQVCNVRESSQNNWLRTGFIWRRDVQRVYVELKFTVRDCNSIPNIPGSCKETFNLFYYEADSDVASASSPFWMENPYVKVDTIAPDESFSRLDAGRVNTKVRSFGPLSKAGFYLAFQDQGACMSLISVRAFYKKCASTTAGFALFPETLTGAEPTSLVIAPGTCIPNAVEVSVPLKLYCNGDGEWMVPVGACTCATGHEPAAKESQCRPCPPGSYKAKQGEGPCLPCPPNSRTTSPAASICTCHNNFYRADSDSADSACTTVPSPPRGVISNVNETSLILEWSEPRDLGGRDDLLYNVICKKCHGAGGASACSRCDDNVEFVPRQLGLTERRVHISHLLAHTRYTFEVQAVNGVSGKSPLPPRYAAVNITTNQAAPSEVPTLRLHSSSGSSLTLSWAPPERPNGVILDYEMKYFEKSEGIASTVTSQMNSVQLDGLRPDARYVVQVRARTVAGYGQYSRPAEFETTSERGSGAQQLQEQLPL
procedure.details: Selectivity ELISA of humanized antibodies for human Eph receptor
Assay type: binding
experimental.conditions: coated protein 1 nM
The label y is reserved for hEphB3-SEAP-: absorbance at 450 nm, percentage with respect to hEphA4-SEAP-His as 100% strictly under 6%; n covers values equal to or above it.

molecule	class
90 (antibody, V domains shown, constant regions without entry; synthetic humanized antibody light chain variable region sequence; synthetic humanized antibody heavy chain variable region sequence) VL: DIQMTQSPSSLSASVGDRVTITCRASENIYRNLAWYQQKPGKAPQLLLYAATNLADGVPSRFSGSGSGTDYTLTISSLQPEDFATYYCQHFWGTPWTFGQGTKVEIK VH: QVQLVQSGSELKKPGASVKVSCKASGYTFTDYSMHWVRQAPGQGLEWMGWINTETGEPTYADDFKGRFVFSLDTSVSTAYLQISSLKAEDTAVYYCARIPLYYYGSRYWYFDVWGQGTTVTVSS	y
156 (antibody, V domains shown, synthetic humanized antibody heavy chain variable region sequence; synthetic humanized antibody light chain variable region sequence) VH: QIQLVQSGSELKKPGASVKVSCKASGYTFTDYSMHWVRQAPGQGLKWMGWINTETGEPTYAQGFTGRFVFSLDTSVSTAYLQISSLKAEDTAVYYCARIPLYYYGSRYWYFDVWGQGTTVTVSS VL: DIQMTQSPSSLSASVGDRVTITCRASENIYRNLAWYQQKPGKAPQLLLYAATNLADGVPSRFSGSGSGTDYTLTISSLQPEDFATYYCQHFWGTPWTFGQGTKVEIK	y
85 (antibody, V domains shown, constant regions without entry; synthetic humanized antibody light chain variable region sequence; synthetic humanized antibody heavy chain variable region sequence) VL: DIQMTQSPSSLSASVGDRVTITCRASENIYRNLAWYQQKPGKAPKLLLYAATNLADGVPSRFSGSGSGTDYTLTISSLQSEDFATYYCQHFWGTPWTFGQGTKVEIK VH: QVQLVQSGSELKKPGASVKVSCKASGYTFTDYSMHWVRQAPGQGLKWMGWINTETGEPTYADDFKGRFVFSLDTSVSTAYLQISSLKAEDTAVYYCARIPLYYYGSRYWYFDVWGQGTTVTVSS	y
142 (antibody, V domains shown, synthetic humanized antibody heavy chain variable region sequence; synthetic humanized antibody light chain variable region sequence) VH: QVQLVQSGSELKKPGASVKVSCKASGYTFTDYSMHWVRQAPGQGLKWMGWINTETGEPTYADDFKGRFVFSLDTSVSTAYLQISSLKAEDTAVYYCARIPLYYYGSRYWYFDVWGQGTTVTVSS VL: DIQMTQSPSSLSASVGDRVTITCRASENIYRNLAWYQQKPGKAPKLLVYAATNLADGVPSRFSGSGSGTDYTLTISSLQPEDFATYYCQHFWGTPWTFGQGTKVEIK	y
158 (antibody, V domains shown, synthetic humanized antibody heavy chain variable region sequence; synthetic humanized antibody light chain variable region sequence) VH: QVQLVQSGSELKKPGASVKVSCKASGYTFTDYSMHWVRQAPGQGLKWMGWINTETGEPTYAQGFTGRFVFSLDTSVSTAYLQISSLKAEDTAVYYCARIPLYYYGSRYWYFDVWGQGTTVTVSS VL: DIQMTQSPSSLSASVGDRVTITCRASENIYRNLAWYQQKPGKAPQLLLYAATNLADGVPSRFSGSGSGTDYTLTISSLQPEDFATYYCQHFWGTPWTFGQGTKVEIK	n

# evaluate next
Q: Determine if 151 (antibody, V domains shown, synthetic humanized antibody heavy chain variable region sequence; synthetic humanized antibody light chain variable region sequence) VH: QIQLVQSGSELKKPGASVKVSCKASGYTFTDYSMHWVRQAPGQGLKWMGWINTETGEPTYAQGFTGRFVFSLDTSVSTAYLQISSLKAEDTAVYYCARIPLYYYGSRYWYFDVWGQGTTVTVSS VL: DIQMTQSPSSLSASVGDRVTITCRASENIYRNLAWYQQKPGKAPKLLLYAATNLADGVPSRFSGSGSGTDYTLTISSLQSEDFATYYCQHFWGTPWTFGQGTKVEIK shows hEphB3-SEAP-: absorbance at 450 nm, percentage with respect to hEphA4-SEAP-His as 100% strictly lower than 6%.
A: n
